# A: amounts of water-insoluble glucan formed annotations
# experimental system: water-insoluble glucan producing enzyme (Streptococcus downei, UniProt P27470)
# Construct: endogenous in cells; host or cells: Streptococcus mutans 6715 strain (today S. sobrinus), culture supernatant, ammonium sulfate precipitate, dialyzed
# Sequence (P27470 39-1592): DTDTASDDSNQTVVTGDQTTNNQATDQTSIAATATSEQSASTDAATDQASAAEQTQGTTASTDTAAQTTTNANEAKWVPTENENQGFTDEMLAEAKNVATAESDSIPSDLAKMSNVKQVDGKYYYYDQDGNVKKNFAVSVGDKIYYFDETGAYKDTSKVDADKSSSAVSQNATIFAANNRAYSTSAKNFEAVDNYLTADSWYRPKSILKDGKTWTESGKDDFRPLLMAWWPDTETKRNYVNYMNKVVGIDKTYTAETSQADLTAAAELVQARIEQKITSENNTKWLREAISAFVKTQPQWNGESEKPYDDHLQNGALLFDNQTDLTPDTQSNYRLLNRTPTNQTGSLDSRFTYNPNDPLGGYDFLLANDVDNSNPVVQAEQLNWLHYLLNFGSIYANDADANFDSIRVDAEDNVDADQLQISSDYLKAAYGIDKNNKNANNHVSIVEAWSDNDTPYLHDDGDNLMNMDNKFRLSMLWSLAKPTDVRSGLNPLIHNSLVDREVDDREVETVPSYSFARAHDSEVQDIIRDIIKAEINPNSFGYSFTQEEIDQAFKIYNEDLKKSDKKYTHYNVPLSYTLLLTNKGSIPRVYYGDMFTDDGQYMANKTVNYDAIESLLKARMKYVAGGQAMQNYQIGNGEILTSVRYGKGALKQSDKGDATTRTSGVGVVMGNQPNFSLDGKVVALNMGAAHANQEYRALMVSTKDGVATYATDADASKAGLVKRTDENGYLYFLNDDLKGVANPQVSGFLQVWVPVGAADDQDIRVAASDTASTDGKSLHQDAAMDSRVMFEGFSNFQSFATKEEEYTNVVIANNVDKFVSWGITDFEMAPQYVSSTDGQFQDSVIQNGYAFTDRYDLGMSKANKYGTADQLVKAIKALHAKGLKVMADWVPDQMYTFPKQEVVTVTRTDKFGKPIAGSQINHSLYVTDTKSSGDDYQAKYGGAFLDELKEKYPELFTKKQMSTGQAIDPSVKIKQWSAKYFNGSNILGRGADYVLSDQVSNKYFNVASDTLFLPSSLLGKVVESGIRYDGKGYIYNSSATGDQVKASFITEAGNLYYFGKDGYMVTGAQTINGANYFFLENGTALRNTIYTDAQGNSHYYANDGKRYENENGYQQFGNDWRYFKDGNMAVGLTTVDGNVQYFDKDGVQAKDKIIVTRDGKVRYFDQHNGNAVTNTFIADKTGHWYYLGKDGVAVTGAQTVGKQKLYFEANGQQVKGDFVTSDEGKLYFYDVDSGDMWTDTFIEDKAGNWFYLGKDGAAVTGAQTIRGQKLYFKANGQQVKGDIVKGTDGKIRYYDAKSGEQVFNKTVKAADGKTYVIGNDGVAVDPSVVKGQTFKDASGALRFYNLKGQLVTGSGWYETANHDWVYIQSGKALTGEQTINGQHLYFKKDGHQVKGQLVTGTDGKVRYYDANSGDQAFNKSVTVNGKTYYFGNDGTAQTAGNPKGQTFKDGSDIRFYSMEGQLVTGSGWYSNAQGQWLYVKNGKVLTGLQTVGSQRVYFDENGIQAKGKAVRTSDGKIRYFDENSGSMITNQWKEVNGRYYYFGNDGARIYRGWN
# protocol notes: Effect of saccharides on formation of water-insoluble glucan from sucrose (Experiment 3)
# Type: biochemical, Streptococcus mutans 6715 strain
# stated conditions: 1 ml 4 w/v % sucrose plus 1 ml 4 w/v % saccharide, 0.02 units enzyme, 37° C., 16 hours; sucrose control 300
measurement type: A: amounts of water-insoluble glucan formed (µg/mL)

>>> print(df.to_string())
                               given_smiles  reading
0  OC[C@H](O)[C@@H](O)[C@H](O)[C@H](O)CO[C@H]1O[C@H](CO[C@H]2O[C@H](CO)[C@@H](O)[C@H](O)[C@H]2O)[C@@H](O)[C@H](O)[C@H]1O       60
1  OC[C@H](O)[C@@H](O)[C@H](O)[C@H](O)CO[C@H]1O[C@H](CO)[C@@H](O)[C@H](O)[C@H]1O      270
2  OC[C@@H](O)[C@@H](O[C@H]1O[C@H](CO[C@H]2O[C@H](CO)[C@@H](O)[C@H](O)[C@H]2O)[C@@H](O)[C@H](O)[C@H]1O)[C@H](O)[C@@H](O)CO       70
3  OC[C@H]1O[C@@](CO)(OC[C@H]2O[C@@](CO)(O[C@H]3O[C@H](CO)[C@@H](O)[C@H](O)[C@H]3O)[C@@H](O)[C@@H]2O)[C@@H](O)[C@@H]1O      291
4  O=C(CO)[C@@H](O)[C@H](O[C@H]1O[C@H](CO)[C@@H](O)[C@H](O)[C@H]1O)[C@H](O)CO      180
5       O=C(CO)[C@@H](O)[C@H](O)[C@@H](O)CO      261

---

# C: inhibition degree of water-insoluble glucan formation annotations
# experimental system: water-insoluble glucan producing enzyme (Streptococcus downei, UniProt P27470)
# Construct: to the supernatant was added with ammonium sulfate to give 60% saturation; endogenous in cells; host or cells: Streptococcus mutans 6715 strain (today S. sobrinus), culture supernatant, ammonium sulfate precipitate, dialyzed
# protocol notes: Effect of saccharides on formation of water-insoluble glucan from sucrose (Experiment 3)
# Type: biochemical, Streptococcus mutans 6715 strain
# stated conditions: saccharide reduced to 10% against sucrose: 1 ml 4 w/v % sucrose plus 1 ml 0.4 w/v % saccharide, 37° C., 16 hours
measurement type: C: inhibition degree of water-insoluble glucan formation (%)

compound	reading
OC[C@H]1O[C@H](OC[C@H]2O[C@H](OC[C@H]3O[C@H](OC[C@H]4OC(O)[C@H](O)[C@@H](O)[C@@H]4O)[C@H](O)[C@@H](O)[C@@H]3O)[C@H](O)[C@@H](O)[C@@H]2O)[C@H](O)[C@@H](O)[C@@H]1O (stereo partly drawn) [Isomaltotetraose, 6^2 -O-α-isomaltosyl isomaltose]	58
OC[C@H]1O[C@H](OC[C@H]2O[C@H](O[C@H]3[C@H](O)[C@@H](O)[C@@H](O[C@H]4[C@H](O)[C@@H](O)C(O)O[C@@H]4CO)O[C@@H]3CO)[C@H](O)[C@@H](O)[C@@H]2O)[C@H](O)[C@@H](O)[C@@H]1O (stereo partly drawn) [Isomaltosyl maltose, 4^2 -O-α-isomaltosyl maltose]	55
OC[C@H]1O[C@H](OC[C@H]2O[C@H](OC[C@H]3OC(O)[C@H](O)[C@@H](O)[C@@H]3O)[C@H](O)[C@@H](O)[C@@H]2O)[C@H](O)[C@@H](O)[C@@H]1O (stereo partly drawn) [Isomaltotriose]	49
